Biological target: Protein-arginine deiminase type-2 (Homo sapiens) (UniProt Q9Y2J8)
Sequence (Q9Y2J8 whole entry, looked up): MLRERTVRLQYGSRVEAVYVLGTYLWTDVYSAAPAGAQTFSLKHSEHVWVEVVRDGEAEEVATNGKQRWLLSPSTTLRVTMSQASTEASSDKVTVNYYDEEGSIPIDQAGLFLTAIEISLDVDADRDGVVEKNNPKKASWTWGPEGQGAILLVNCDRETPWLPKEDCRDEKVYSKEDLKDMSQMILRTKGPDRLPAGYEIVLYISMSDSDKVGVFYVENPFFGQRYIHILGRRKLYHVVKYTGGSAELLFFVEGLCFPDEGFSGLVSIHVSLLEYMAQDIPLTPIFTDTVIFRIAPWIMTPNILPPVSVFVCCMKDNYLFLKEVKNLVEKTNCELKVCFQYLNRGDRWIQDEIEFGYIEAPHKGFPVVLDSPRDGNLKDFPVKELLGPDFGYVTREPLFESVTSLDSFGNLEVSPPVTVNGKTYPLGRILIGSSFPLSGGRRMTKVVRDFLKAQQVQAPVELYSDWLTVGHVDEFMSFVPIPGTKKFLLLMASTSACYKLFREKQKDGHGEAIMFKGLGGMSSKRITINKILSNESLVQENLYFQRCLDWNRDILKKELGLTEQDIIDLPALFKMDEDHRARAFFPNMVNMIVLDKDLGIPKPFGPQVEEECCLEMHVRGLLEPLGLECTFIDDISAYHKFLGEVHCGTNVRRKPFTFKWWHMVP
Experiment: PubChem AID 588490
Conditions: recombinant PAD1-4, BAEE citrulline colorimetric absorbance; PAD2
QUANTITY MEASURED: pIC50
Note on pIC50: it is the negative log10 of concentration, concentration in mol/L.

Request: Respond only with pIC50 recorded for NC1=CC(=O)c2ccc(-c3cccc(C(=O)O)n3)nc2C1=O
Response: 6.70
